Every entry's value here was drawn from a melting point compilation (Tetko et al.; mined from patent text by program, amines drawn as free bases though some values may be those of a salt).

measurement-kind: melting point

Solved cases (2 shown):
INSERT INTO results (molecule, measurement_kind, recorded_measurement) VALUES
  ('O=C1c2ccccc2OC2CCCON12 (stereo not drawn)', 'melting point', '139 to 141 °C'),
  ('CCCc1nc2c(N)nc3cc(-c4cccc(C(=O)N5CCOCC5)c4)ccc3c2s1', 'melting point', '190 to 193 °C');

Let us examine a further case.
-- ask Which melting point is listed for CCOC(=O)C1=Cc2cccc(NS(=O)(=O)N(C)C)c2OCC1 ?
-- reply 93 to 96 °C

----------
Form field: melting point (one value per entry).

INSERT INTO assay_data (molecule, recorded_measurement) VALUES
  ('NS(=O)(=O)c1ccc(-c2noc(-c3cnn4c(C5CC5)cc(-c5ccc(C(F)(F)F)cc5)nc34)n2)s1', '290 °C'),
  ('Cc1cc2cc(CN3CCCC3)cnc2cc1NC(=O)c1ccc(-c2ccc(F)cc2)cc1F', '174 to 177 °C'),
  ('CCCCNc1ccc(CCNc2ncnc(CC)c2C(=O)OCC)cc1', '65 to 66 °C'),
  ('CC(=O)Nc1ccc(NC(=O)OCc2ccccc2)c(O)c1', '205 °C'),
  ('CCOc1nc(N(C)C)nc(=O)[nH]1', '215 to 216 °C');

Let us examine a further case.
-- ask Which melting point is listed for CC(Oc1ccc(Oc2cnc3cc(Cl)ccc3n2)cc1F)C(=O)O (stereo unspecified) ?
-- reply 132 to 138 °C

----------
Form field: melting point (one value per entry).

INSERT INTO assay_data (molecule, measurement_kind, recorded_measurement) VALUES
  ('COC(=O)c1cccc2c1Nc1cccc(I)c1C2', 'melting point', '108 to 110 °C'),
  ('CCOC(=O)c1cn2c(nc1=O)CCCCC2', 'melting point', '156 to 157 °C'),
  ('C=CCOc1ccc(C(O)CN2CCN(C(c3ccccc3)c3ccccc3)CC2)cc1 (configuration not stated)', 'melting point', '100 °C');

-- ask Which melting point is listed for Cc1[nH]n(C2CCOC2)c2nc(-c3ccncc3)nc(=O)c1-2 (configuration not stated) ?
-- reply 251 °C

-- ask Which melting point is listed for Cn1nnc2c(N3CCN(Cc4ccccc4)CC3)ncnc21 ?
-- reply 91 to 92 °C

-- ask Which melting point is listed for CC(=O)OCC(C)(C)C(=O)O ?
-- reply 56 to 59 °C

-- ask Which melting point is listed for CCOc1cc(OCc2ccccc2OCc2nc(-c3ccccc3)oc2C)ccc1CCC(=O)O ?
-- reply 112 to 113 °C

----------
Form field: melting point (one value per entry).

Solved cases (2 shown):
INSERT INTO assay_data (compound, measurement_kind, recorded_measurement) VALUES
  ('COc1cccc(OC)c1C(=O)Nc1cc(C(C)(C)C)ns1', 'melting point', '266 to 267 °C'),
  ('CCC(=O)C1=C(O)CC(c2c(C)c(C)c(C)c(C)c2C)CC1=O (stereo not drawn)', 'melting point', '84 °C');

-- ask Which melting point is listed for CC(C)[C@H](NC(=O)OCc1ccccc1)C(=O)NC(Cc1ccccc1)C(O)C(Cc1ccccc1)NC(=O)[C@@H](NC(=O)c1cccnc1)C(C)C (stereo partly drawn) ?
-- reply 196 to 199 °C

----------
measurement-kind: melting point

Solved cases (5 shown):
INSERT INTO results (compound, measurement_kind, recorded_measurement) VALUES
  ('CC(C)N1C(N)=NS(=O)(=O)NC1Oc1ccc([N+](=O)[O-])cc1 (configuration not stated)', 'melting point', '132 to 136 °C'),
  ('CC(C)C1(C)NC(c2ccc(CO)cn2)=NC1=O (configuration not stated)', 'melting point', '101 to 104 °C'),
  ('O=c1[nH]c2ccc(Cl)cc2n2ccnc12', 'melting point', '> 300 °C'),
  ('COC(=O)[C@H](CC(=O)c1ccc2oc3ccccc3c2c1)NC(=O)c1ccccc1', 'melting point', '65 to 70 °C'),
  ('NC(=O)c1ncn2c(-c3cccc(Cl)c3)ccnc12', 'melting point', '252 to 254 °C');

Let us examine a further case.
-- ask Which melting point is listed for CC(=O)Nc1ccc(C)cc1C(=O)c1ccc(F)cc1 ?
-- reply 140 to 145 °C
